Entry source: ChEMBL document CHEMBL4888484

In this section, each of the compounds is paired with its reported IC50.
- Test system: Plasmodium falciparum
- experimental-protocol: Hit confirmation in dose-response curve in NF54 pLDH assay, at 72h
- Format: functional, organism-based
- Design: timepoint 72 hour
- condition-label: NF54, Erythrocyte
Express it in µM; write the number only.

| smiles-input | system-tested | readout-number |
| --- | --- | --- |
| O=C(c1cscn1)N1CC[C@H](Oc2cccc(Cl)c2)C1 | Plasmodium falciparum | 6.92 |
| N[C@H]1C[C@H](c2cc(NCCCc3cccnc3)nc(C3CC3)n2)C1 | Plasmodium falciparum | 2 |
| c1ccc(-c2noc(-c3ccc(NC4CCCCC4)nn3)n2)cc1 | Plasmodium falciparum | 7.94 |
| CCCn1ccnc1-c1cn(Cc2cc3ccccc3[nH]2)nn1 | Plasmodium falciparum | 5.37 |
| CCN(CC)CCn1c2ccccc2n2cc(-c3ccc(Br)cc3)nc12 | Plasmodium falciparum | 9.77 |

Please look at the following compound next.
Reported IC50 for "CC(C)c1cc(=O)[nH]c(-n2nc(C3CC3)cc2NC(=O)COc2ccc3ccccc3c2)n1" was 9.33
